// EC50 lookup, one value per entry
# Tested on: T1, endogenous cell surface human MSLN (human, UniProt Q13421 296-598)
# T1 construct: whole, on cells; The cell line is named under assay; also called cell-surface MSLN on NCI-H226, OVCAR-3 and AsPC-1 cells
# T1 sequence (Q13421 other isoform, or with tags, fused parts or gaps limits assumed): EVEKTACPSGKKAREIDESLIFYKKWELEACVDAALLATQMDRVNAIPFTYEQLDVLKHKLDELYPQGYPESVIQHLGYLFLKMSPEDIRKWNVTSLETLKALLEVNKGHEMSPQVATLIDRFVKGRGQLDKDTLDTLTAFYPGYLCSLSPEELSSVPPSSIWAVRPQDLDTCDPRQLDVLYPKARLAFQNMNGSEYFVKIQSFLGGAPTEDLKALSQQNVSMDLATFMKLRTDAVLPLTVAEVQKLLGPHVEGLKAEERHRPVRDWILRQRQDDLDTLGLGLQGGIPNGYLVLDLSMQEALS
# Test summary: flow cytometry, NCI-H226 cells
Response body: numeric value in pM, unit text excluded.

1) FS22-172-003-AA/FS28-256 (bispecific antibody, human IgG1, kappa, L234A L235A, V domains shown, IgG1 mAb^2 with LALA) VH: EVQLLESGGGLVQPGGSLRLSCAASGFTFTNTYMSWVRQAPGKGLEWVSNISPTYSTTNYADSVKGRFTISRDNSKNTLYLQMNSLRAEDTAVYYCARYNSYQGGLDYWGQGTLVTVSS VL: EIVLTQSPGTLSLSPGERATLSCRASQSVSSSYLAWYQQKPGQAPRLLIYGASSRATGIPDRFSGSGSGTDFTLTISRLEPEDFAVYYCQQSYYYPITFGQGTKVEIKR    47100
2) FS22-172-003-AA/FS28-024-053 (bispecific antibody, human IgG1, kappa, L234A L235A, V domains shown, IgG1 mAb^2 with LALA) VH: EVQLLESGGGLVQPGGSLRLSCAASGFTLSYSSMSWVRQAPGKGLEWVSFITPSTGYTHYADSVKGRFTISRDNSKNTLYLQMNSLRAEDTAVYYCARRALVFDYWGQGTLVTVSS VL: EIVLTQSPGTLSLSPGERATLSCRASQSVSSSYLAWYQQKPGQAPRLLIYGASSRATGIPDRFSGSGSGTDFTLTISRLEPEDFAVYYCQQASSYPLTFGQGTKVEIKR    579
3) FS22-172-003-AA/FS28-256-005 (bispecific antibody, human IgG1, kappa, L234A L235A, V domains shown, IgG1 mAb^2 with LALA) VH: EVQLLESGGGLVQPGGSLRLSCAASGFTFTETYMSWVRQAPGKGLEWVSNISPTYSTTNYADSVKGRFTISRDNSKNTLYLQMNSLRAEDTAVYYCARYNSYQGGLDYWGQGTLVTVSS VL: EIVLTQSPGTLSLSPGERATLSCRASQSVSSSYLAWYQQKPGQAPRLLIYGASSRATGIPDRFSGSGSGTDFTLTISRLEPEDFAVYYCQQALGYPHTFGQGTKVEIKR    729
4) FS22-172-003-AA/FS28-256-012 (bispecific antibody, human IgG1, kappa, L234A L235A, V domains shown, IgG1 mAb^2 with LALA) VH: EVQLLESGGGLVQPGGSLRLSCAASGFTFTHTYMSWVRQAPGKGLEWVSNISPTYSTTNYADSVKGRFTISRDNNKNTLYLQMNSLRAEDTAVYYCARYNAYHAALDYWGQGTLVTVSS VL: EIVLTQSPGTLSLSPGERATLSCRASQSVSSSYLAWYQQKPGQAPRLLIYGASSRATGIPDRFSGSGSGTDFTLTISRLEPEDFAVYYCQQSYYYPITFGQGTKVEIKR    5700

Now take the following binder into account.
Please look up its EC50: FS22-172-003-AA/FS28-024-051 (bispecific antibody, human IgG1, kappa, L234A L235A, V domains shown, IgG1 mAb^2 with LALA) VH: EVQLLESGGGLVQPGGSLRLSCAASGFTLSYSSMSWVRQAPGKGLEWVSFITPSTGYTHYADSVKGRFTISRDNSKNTLYLQMNSLRAEDTAVYYCARRALIFDYWGQGTLVTVSS VL: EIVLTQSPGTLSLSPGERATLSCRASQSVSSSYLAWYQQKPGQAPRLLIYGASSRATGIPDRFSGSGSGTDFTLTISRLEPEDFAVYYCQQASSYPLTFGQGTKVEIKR
477
